self-cleavage values by entry
B1: Hairpin Ribozyme (parent)
chain: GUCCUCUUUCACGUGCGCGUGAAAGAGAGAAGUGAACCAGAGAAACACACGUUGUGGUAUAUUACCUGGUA

variants of: B1; test: self-cleavage, relative activity (ratio to wild type); higher = more cleavage; co-transcriptional
Respond with the number and no other words.

Answered examples (10):
GUCCUCUUUCACGUGCGCGUGGAAGAGAGAAGUGAACCAGAGAAACACACGUUAUGGUAUAUUACCUGGUA [A22G G54A]	0.428
GUCCUCUUUCACGUGCGCGUGAAAGAGAGAAGUGAACCAGAGAAACACAUGUUGUGCUAUAUUACCUGGUA [C50U G57C]	0.16
GUCCUCUUUCACAUGCGCGUGAAAGAGAGAGGUGAACCAGAGAAACACACGUUGUGGUAUAUUACCUGGUA [G13A A31G]	0.515
GUCCUCUUUCACGUGCGCGUGAAAGAGAAAAGUGAACCAGAGAACCACACGUUGUGGUAUAUUACCUGGUA [G29A A45C]	0.0675
GUCCUCUUUCACGUGCGCGUGAAAGAGAGAAGUGAACCAGAGAAAUACCCGUUGUGGUAUAUUACCUGGUA [C46U A49C]	0.201
GUCCUCUUUCACGUGCGCGUGAAAGAGAGAAGUGAUCCAAAGAAACACACGUUGUGGUAUAUUACCUGGUA [A36U G40A]	0.296
GUCCUCUUUCACGUGCGCGUGAAAGAGAGAAGUGAACCACAGAAACACACGUUGUGGUAUAUUUCCUGGUA [G40C A64U]	0.125
GUCCUCUUUCACGUGCGCGUGAAAGAGAGAAGUGAACCAGAGAAACACACGUUGUGGUAUAUUACCUUGUC [G68U A71C]	0.329
GUCCUCUUUCACGCGCGCGUGAAAGAGAGAAGUGAACCAGAGAAACACACCUUGUGGUAUAUUACCUGGUA [U14C G51C]	0.586
GUCCUCUUUCACGUGCGCGUGAAAGAGAGAAGUGAAACAGAGAAACACACGUUGUGGUAUAUUACAUGGUA [C37A C66A]	0.0612

Request: Give its self-cleavage value. Item: GUCCUCUUUCACGUGCGCGUGAAAGAGAGAAGUGAACCAGAGAAACACACGUUGUGGUAUAUUACCUAGUU [G68A A71U]
Response: 0.15

Request: # get_value(readout='self-cleavage', item= UUCCUCUUUCACGUUCGCGUGAAAGAGAGAAGUGAACCAGAGAAACACACGUUGUGGUAUAUUACCUGGUA [G1U G15U] )
Response: 0.102

meta.source: the RNAGym collection of RNA variant scans (doi:10.7554/elife.80360)
